Reference source: paper PMC9570594

System: HL-60 cells of the acute human promyelocytic leukemia
Test: MTT assay of cell viability
Conditions: Homo sapiens, HL-60, 72 h
assay-endpoint: IC50 (nM)
Write the answer as a number in nM, unit excluded.

State the recorded IC50 for this entry: COc1cccc2c1C(=O)c1c(O)c3c(c(O)c1C2=O)C[C@@](O)(C(=O)CO)C[C@@H]3O[C@H]1C[C@H](N)[C@H](O)[C@H](C)O1 [Doxorubicin, reference compound]
380

----------
Answer each item with its documented IC50.
Test system: murine macrophages of J774.2 line
Experiment: MTT assay of cell viability
Conditions: Mus musculus, J774.2, 72 h

Can you look up IC50 on murine macrophages of J774.2 line for Cc1nc(Nc2ccccn2)sc1C1=NNC(c2ccccc2F)C1 (stereo not drawn) ?
> 50 µM

Can you look up IC50 on murine macrophages of J774.2 line for CCOC(=O)c1ccc(NC(=O)CSC(CC(=O)c2sc(Nc3ccccn3)nc2C)c2ccccc2F)cc1 (stereo not drawn) ?
> 50 µM

Can you look up IC50 on murine macrophages of J774.2 line for CC(=O)N1N=C(c2sc(Nc3ccccn3)nc2C)CC1c1ccccc1F (stereo not drawn) ?
> 50 µM

Can you look up IC50 on murine macrophages of J774.2 line for CC(=O)c1sc(Nc2ccccn2)nc1C ?
> 50 µM

Can you look up IC50 on murine macrophages of J774.2 line for Cc1nc(Nc2ccccn2)sc1C(=O)/C=C/c1ccccc1F ?
> 50 µM

Can you look up IC50 on murine macrophages of J774.2 line for COc1cccc2c1C(=O)c1c(O)c3c(c(O)c1C2=O)C[C@@](O)(C(=O)CO)C[C@@H]3O[C@H]1C[C@H](N)[C@H](O)[C@H](C)O1 [Doxorubicin, reference compound] ?
1.74 µM
